Where these numbers come from: paper PMC7229567

protocol details: Stability of the analytes in rat plasma QC samples under storage conditions
Format: in vitro ADME
condition parameters: 3000 ng/mL
measurement type: At −80°C for a month Remain (%)

COC(=O)C1=CO[C@@H](O[C@@H]2O[C@H](CO[C@@H]3O[C@H](CO)[C@@H](O)[C@H](O)[C@H]3O)[C@@H](O)[C@H](O)[C@H]2O)[C@@H]2C(CO)=CC[C@H]12 [Genipin-1-β-gentiobioside]
95.1
COC(=O)C1=CO[C@@H](O[C@@H]2O[C@H](CO)[C@@H](O)[C@H](O)[C@H]2O)[C@@H]2C(CO)=CC[C@H]12 [Geniposide]
92.8
COC(=O)C1=CO[C@@H](O)[C@@H]2C(CO)=CC[C@H]12 [Genipin]
101
CC(/C=C/C=C(\C)C(=O)O)=C\C=C\C=C(C)\C=C\C=C(/C)C(=O)O [Crocetin]
103
O=C(O)C1=CO[C@@H](O[C@@H]2O[C@H](CO)[C@@H](O)[C@H](O)[C@H]2O)[C@@H]2C(CO)=CC[C@H]12 [Geniposidic acid]
99.9
